Data origin, for the record: the RNAGym collection of RNA variant scans (doi:10.1021/acssynbio.7b00057)

Items are presented alongside their recorded aptazyme ON/OFF ratio.
B1: Pistol ribozyme (parent)
chain: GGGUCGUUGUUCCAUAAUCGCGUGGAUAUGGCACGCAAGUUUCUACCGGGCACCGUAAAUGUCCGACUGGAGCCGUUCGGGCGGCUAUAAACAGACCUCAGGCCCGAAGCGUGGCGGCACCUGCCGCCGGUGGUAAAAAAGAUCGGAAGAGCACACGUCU

Variants of: B1
assay_overview: aptazyme ON/OFF ratio, guanine; higher = stronger switching; co-transcriptional cleavage with and without guanine
reported_property: aptazyme ON/OFF ratio

| sequence_change | reported_property | numeric_readout |
| --- | --- | --- |
| U7A U8C G9A U10C U11A C12A | aptazyme ON/OFF ratio | 1.19 |
| U8G G9A U10G U11A C12U C13A | aptazyme ON/OFF ratio | 1.34 |
| U7G U8G G9U U10G U11A C12A | aptazyme ON/OFF ratio | 1.13 |
| U7A U8C G9U U10A U11C C13A | aptazyme ON/OFF ratio | 1.08 |
| U7G U8A G9U U10G U11G C12U C13G | aptazyme ON/OFF ratio | 1.06 |
| U7G U8A U11G C12G | aptazyme ON/OFF ratio | 1.33 |
| U8G G9A U11A C12U C13U | aptazyme ON/OFF ratio | 1.27 |
| U7A U8A U10A C12G C13G | aptazyme ON/OFF ratio | 1.17 |
| U7C U8C G9A C12A C13A | aptazyme ON/OFF ratio | 1.24 |
| U7C U8C U10G U11G C12G C13U | aptazyme ON/OFF ratio | 1.14 |
| U7A G9U U11G C12A C13U | aptazyme ON/OFF ratio | 1.22 |
| U7A U8G G9A U10A U11G C12G C13U | aptazyme ON/OFF ratio | 1.48 |
| U8A G9U U11A C12G C13U | aptazyme ON/OFF ratio | 1.3 |
| U7G U8G G9A U10A U11A C12U C13U | aptazyme ON/OFF ratio | 1.24 |
| U8A G9A U10G C13G | aptazyme ON/OFF ratio | 1.21 |
| U7C G9U U10C U11C C13U | aptazyme ON/OFF ratio | 1 |
| U8C G9C U10C U11C C12U | aptazyme ON/OFF ratio | 0.966 |
| U7C U8C C13G | aptazyme ON/OFF ratio | 1.17 |
| U7G U8A G9U U10G U11C C12U C13U | aptazyme ON/OFF ratio | 1.08 |
| U7C U8C U10A U11C C12U C13U | aptazyme ON/OFF ratio | 1.07 |
| U8A G9C U10A U11A C12A C13U | aptazyme ON/OFF ratio | 1.37 |
| U7C G9A U10C U11C C12U C13U | aptazyme ON/OFF ratio | 1.07 |
